The reported numbers originate from patent US11661426B2.

# Target Entity: ALK2 (Homo sapiens (Human))
# Sequence (Q04771 21-509): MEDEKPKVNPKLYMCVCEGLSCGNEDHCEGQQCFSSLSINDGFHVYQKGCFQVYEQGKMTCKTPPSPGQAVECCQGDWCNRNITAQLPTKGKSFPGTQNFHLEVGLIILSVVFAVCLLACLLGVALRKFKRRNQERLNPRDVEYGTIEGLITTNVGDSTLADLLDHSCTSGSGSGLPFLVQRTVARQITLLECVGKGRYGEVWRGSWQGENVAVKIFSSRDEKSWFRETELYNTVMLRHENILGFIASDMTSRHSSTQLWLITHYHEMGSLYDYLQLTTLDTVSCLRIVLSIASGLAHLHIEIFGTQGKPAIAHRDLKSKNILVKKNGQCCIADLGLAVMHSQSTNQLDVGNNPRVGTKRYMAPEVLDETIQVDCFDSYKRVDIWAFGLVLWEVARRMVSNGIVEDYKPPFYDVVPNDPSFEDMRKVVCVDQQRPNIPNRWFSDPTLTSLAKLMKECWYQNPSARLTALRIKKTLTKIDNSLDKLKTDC
Give measured IC50 for each item. Keep answers brief.

query: Name the recorded IC50 of the compound listed here: COc1cc(-n2cnc(Nc3nc(N4CCC[C@@H]4CO)nc4ccsc34)c2)cc(OC)c1OC [Compound 303a]
result: < 100 nM

query: Name the recorded IC50 of the compound listed here: OC[C@@H]1CCCN1c1nc(Nc2cn(-c3ccc(O)cc3)cn2)c2cccn2n1 [Compound 48c]
result: < 100 nM

query: Name the recorded IC50 of the compound listed here: COc1cc(-n2cnc(Nc3nc(N4C[C@@H]5C[C@@H]5[C@@H]4CO)c4cccn4n3)c2)cc(OC)c1OC [Compound 324b]
result: 100 to 1000 nM

query: Name the recorded IC50 of the compound listed here: COc1cc(-n2cnc(Nc3nc(N4CCC[C@H]4C(N)=O)nn4c(CN5CCCCC5)ccc34)c2)cc(OC)c1OC [Compound 117a]
result: < 100 nM
